target_system: SNARE complex (VAMP, syntaxin, SNAP-25 bound to GST) (UniProt P60880)
Sequence (P60880 whole entry, one chain of several): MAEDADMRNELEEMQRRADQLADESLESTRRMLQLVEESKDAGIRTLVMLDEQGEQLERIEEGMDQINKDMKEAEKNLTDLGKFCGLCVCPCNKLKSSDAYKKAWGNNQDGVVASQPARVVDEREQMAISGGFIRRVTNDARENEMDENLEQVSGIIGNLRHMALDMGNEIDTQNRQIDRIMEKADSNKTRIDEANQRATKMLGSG
experiment_notes: ELISA of SNARE complex formation (SNAP-25-GST, syntaxin, immobilized VAMP); compound at 0.5 mM
readout_type: % inhibition formation SNARE complex (%)

Recorded results for 5 binders are shown here.
1) Ac-NHFLNWM-NH2 [Ac-SEQ ID NO: 15-NH2] ... 48
2) Ac-DHLKKWM-NH2 [Ac-SEQ ID NO: 22-NH2] ... 18
3) Ac-DHFLNWM-NH2 [Ac-SEQ ID NO: 34-NH2] ... 27
4) Ac-EHLKQWM-NH2 [Ac-SEQ ID NO: 1-NH2] ... 33
5) Ac-EHLKKWM-NH2 [Ac-SEQ ID NO: 8-NH2] ... 11

[A] Ac-QHLKEWM-NH2 [Ac-SEQ ID NO: 12-NH2]
[B] Ac-DHFQQRM-NH2 [Ac-SEQ ID NO: 24-NH2]
Consider A and B . Which of these has its % inhibition formation SNARE complex at a higher number? Give the label of your selection.
B

Data provenance is patent US20150098989A1.
